- Test system: NCI-H292 lung cancer cells
- Method Description: FDA drug screening, complete media vs cholesterol-free media with simvastatin (TABLE 2)
- Assay type: cell-based, human
- Protocol Conditions: NCI-H292 cells, FDA library drug in complete media
Where a name gives a salt, the structure may show the parent alone.
For each entry below, report its Complete Media value.
Numbers only.

Some solved entries appear below for comparison.
• NCCS(=O)(=O)O = 1.363
• CC1=C(C(=O)O)N2C(=O)[C@@H](NC(=O)[C@H](N)c3ccccc3)[C@H]2SC1 [Cephalexin (monohydrate)] = 0.9161
• CO[C@H]1C[C@@H]2CC[C@@H](C)[C@@](O)(O2)C(=O)C(=O)N2CCCC[C@H]2C(=O)O[C@H]([C@H](C)C[C@@H]2CC[C@@H](O)[C@H](OC)C2)CC(=O)[C@H](C)/C=C(\C)[C@@H](O)[C@@H](OC)C(=O)[C@H](C)C[C@H](C)/C=C/C=C/C=C/1C = 0.8704

Hi, could you look up Complete Media for each item in my list?
1. O=C(O)Cc1ccccc1Nc1c(Cl)cccc1Cl [Diclofenac (Sodium)]
2. C/C1=C2/[N-][C@H]([C@H](CC(N)=O)[C@@]2(C)CCC(=O)NC[C@@H](C)OP(=O)([O-])O[C@H]2[C@@H](O)[C@@H](n3cnc4cc(C)c(C)cc43)O[C@@H]2CO)[C@]2(C)N=C(/C(C)=C3N=C(/C=C4N=C1[C@@H](CCC(N)=O)C\4(C)C)[C@@H](CCC(N)=O)[C@]\3(C)CC(N)=O)[C@@H](CCC(N)=O)[C@]2(C)CC(N)=O.[CH3-].[Co+3]
3. CN1CCC[C@@H]1Cc1c[nH]c2ccc(CCS(=O)(=O)c3ccccc3)cc12 [Eletriptan (hydrobromide)]

0.9075
0.8589
0.9128

---

- Tested on: NCI-H292 lung cancer cells
- Method Description: FDA drug screening, complete media vs cholesterol-free media with simvastatin (TABLE 2)
- Assay type: cell-based, human
- Protocol Conditions: NCI-H292 cells, FDA library drug in cholesterol-free media with simvastatin 0.04 μM
Where a name gives a salt, the structure may show the parent alone.
Parameter Measured: Cholesterol-free media + simvastatin (0.04 μM)
Numbers only.

- O=C(O[C@H]1CN2CCC1CC2)N1CCc2ccccc2[C@@H]1c1ccccc1: 1.222
- C[C@@](Cc1ccc(O)c(O)c1)(NN)C(=O)O: 1.956
- O=C(O)c1cc(=O)c2ccccc2o1: 1.932

Could you now consider this next compound?
# Cholesterol-free media + simvastatin (0.04 μM) of C=C1c2cccc(O)c2C(=O)C2=C(O)[C@]3(O)C(=O)C(C(N)=O)=C(O)[C@@H](N(C)C)[C@@H]3[C@@H](O)[C@H]12 [Methacycline (hydrochloride)] = 1.315

---

For each entry below, report its Difference value.
- System: NCI-H292 lung cancer cells
- Method Description: FDA drug screening, complete media vs cholesterol-free media with simvastatin (TABLE 2)
- Format: cell-based, human
- Protocol Conditions: complete media minus cholesterol-free media + simvastatin; >0 enhanced anti-cancer activity, about 0 neutral, <0 antagonist
Counter-ions that a name gives are not always drawn.
Numbers only.

Hi, could you look up Difference for each item in my list?
1. CC1(C)O[C@@H]2C[C@H]3[C@@H]4CCC5=CC(=O)C=C[C@]5(C)[C@H]4[C@@H](O)C[C@]3(C)[C@]2(C(=O)CO)O1 [Desonide]
2. C[C@]12CC[C@@H]3c4ccc(OS(=O)(=O)O)cc4CC[C@H]3[C@@H]1CCC2=O [Estropipate]
3. CCC(C)(C)c1ccc(CC(C)CN2C[C@@H](C)O[C@@H](C)C2)cc1 (some centres unmarked) [Amorolfine (hydrochloride)]

1: 0.14; 2: 0.15; 3: 0.61

---

- Tested on: NCI-H292 lung cancer cells
- Method Description: FDA drug screening, complete media vs cholesterol-free media without statin (TABLE 1)
- Assay type: cell-based, human
- Protocol Conditions: NCI-H292 cells, FDA drug library screen, complete media
Structures can show the parent of a compound that is named as a salt.
For each entry below, report its Complete value.
Give bare numbers.

Some solved entries appear below for comparison.
- CC1(C)S[C@@H]2[C@H](NC(=O)[C@H](N)c3ccc(O)cc3)C(=O)N2[C@H]1C(=O)[O-].[Na+] [Amoxicillin (sodium)]: 0.7329
- CCCCc1nc(C)c(CC(=S)N(C)C)c(=O)n1Cc1ccc(-c2ccccc2-c2nnn[nH]2)cc1 [Fimasartan]: 1.249
- CCOc1nc2cccc(C(=O)OC(C)OC(=O)OC3CCCCC3)c2n1Cc1ccc(-c2ccccc2-c2nnn[nH]2)cc1 (stereo not shown) [Candesartan Cilexetil]: 0.9304
- O=C(O)c1ccccc1O [Salicylic acid]: 0.8829
- CC(C)OC(=O)CCC/C=C\C[C@@H]1[C@@H](/C=C/C(F)(F)COc2ccccc2)[C@H](O)C[C@@H]1O [Tafluprost]: 0.7736
- CN(C)CC/C=C1/c2ccccc2COc2ccc(CC(=O)O)cc21 [Olopatadine (hydrochloride)]: 0.8917

Could you now consider this next compound?
# Complete of C[C@@H]1[C@@H](c2ccc(Cl)cc2)SC(=O)N1C(=O)NC1CCCCC1 [Hexythiazox] = 1.396

---

- Test system: NCI-H292 lung cancer cells
- Method Description: FDA drug screening, complete media vs cholesterol-free media with simvastatin (TABLE 2)
- Type: cell-based, human
- Protocol Conditions: NCI-H292 cells, drug in cholesterol-free media with simvastatin 0.04 μM
Structures can show the parent of a compound that is named as a salt.
Parameter Measured: Cholesterol-free media + simvastatin (0.04 μM)
Answers are plain numbers.

Some solved entries appear below for comparison.
• COc1ccc(/C=C/C(=O)Nc2ccccc2C(=O)O)cc1OC = 1.221
• CC1(C)S[C@@H]2[C@H](NC(=O)Cc3ccccc3)C(=O)N2[C@H]1C(=O)O.CC1(C)S[C@@H]2[C@H](NC(=O)Cc3ccccc3)C(=O)N2[C@H]1C(=O)O.O.O.O.O.c1ccc(CNCCNCc2ccccc2)cc1 [Penicillin G benzathine (tetrahydrate)] = 1.321
• N=C(N)/N=C(\N)N1CCOCC1 [Moroxydine (hydrochloride)] = 1.02
• CCCCCCOC(=O)CCC(=O)CN [Hexaminolevulinate (hydrochloride)] = 1.074
• NS(=O)(=O)c1cc2c(cc1Cl)N=CNS2(=O)=O [Chlorothiazide] = 1.126

Hi, could you look up Cholesterol-free media + simvastatin (0.04 μM) for each item in my list?
1. CC(C)(O/N=C(\C(=O)N[C@@H]1C(=O)N2C(C(=O)[O-])=C(C[n+]3ccccc3)CS[C@H]12)c1csc(N)n1)C(=O)O
2. CCC(C)(Oc1ccc(C2(c3ccc(OC(C)(CC)C(=O)O)cc3)CCCCC2)cc1)C(=O)O (stereo not drawn) [Clinofibrate]
3. C[C@H](O)[C@H](O)[C@H]1CNc2nc(N)[nH]c(=O)c2N1 [Sapropterin (dihydrochloride)]
4. O=c1[nH]c(=O)n([C@H]2C[C@H](O)[C@@H](CO)O2)cc1I
5. CCCOC(=O)c1cc(O)c(O)c(O)c1 [Propyl gallate]
6. OC[C@H]1OC(O)[C@H](O)[C@@H](O)[C@@H]1O (stereo partly drawn)

[1.391, 1.342, 1.145, 1.124, 1.306, 0.822]

Hi, could you look up Cholesterol-free media + simvastatin (0.04 μM) for each item in my list?
1. COc1cc([C@@H]2c3cc4c(cc3[C@@H](O[C@@H]3O[C@@H]5CO[C@@H](c6cccs6)O[C@H]5[C@H](O)[C@H]3O)[C@H]3COC(=O)[C@H]23)OCO4)cc(OC)c1O [Teniposide]
2. CCCc1nc(C(C)(C)O)c(C(=O)O)n1Cc1ccc(-c2ccccc2-c2nnn[nH]2)cc1
3. O=C([O-])CCCc1ccccc1.[Na+] [Sodium 4-phenylbutyrate]
4. COc1cc2c(cc1OC)C1CC(=O)C(CC(C)C)CN1CC2 (stereo not drawn)
5. NC(=O)N1c2ccccc2C[C@H](O)c2ccccc21 [Eslicarbazepine]
6. N[C@H](C(=O)O)[C@H](O)c1ccc(O)c(O)c1

1: 0.3807; 2: 1.131; 3: 1.094; 4: 1.249; 5: 1.137; 6: 1.236

---

For each entry below, report its Complete value.
- System: NCI-H292 lung cancer cells
- Method Description: FDA drug screening, complete media vs cholesterol-free media without statin (TABLE 1)
- Type: cell-based, human
- Protocol Conditions: NCI-H292 cells, complete media, FDA drug library screen
Where a name gives a salt, the structure may show the parent alone.
Give bare numbers.

* CCC(=O)c1c(O)cc(O)cc1O | 0.9515
* O=C1NCCN1CCN1CCC(c2cn(-c3ccc(F)cc3)c3ccc(Cl)cc23)CC1 | 0.5035
* COc1ccc2cccc(CCNC(C)=O)c2c1 [Agomelatine (hydrochloride)] | 0.7483
* C[C@@H]1CCN(C(=O)CC#N)C[C@@H]1N(C)c1ncnc2[nH]ccc12 | 1.238
* CCc1nc(N)nc(N)c1-c1ccc(Cl)cc1 | 1.426

Hi, could you look up Complete for each item in my list?
1. CN(C)C(=N)N=C(N)N [Metformin (hydrochloride)]
2. CN(C)c1cc(NC(=O)CNC(C)(C)C)c(O)c2c1C[C@H]1C[C@H]3[C@H](N(C)C)C(O)=C(C(N)=O)C(=O)[C@@]3(O)C(O)=C1C2=O [Tigecycline (tetramesylate)]

1.069
0.1424

Hi, could you look up Complete for each item in my list?
1. O=[N+]([O-])c1ccc(O)c2ncccc12
2. Cc1ccccc1-n1c(CF)nc2ccc(N)cc2c1=O
3. CC(=O)Oc1cc2c(s1)CCN(C(C(=O)C1CC1)c1ccccc1F)C2 (centres unmarked)
4. COS(=O)(=O)[O-].C[n+]1c2ccccc2nc2ccccc21 [Phenazine (methylsulfate)]
5. C[N+]1(C)[C@@H]2CC[C@H]1C[C@@H](OC(=O)C(CO)c1ccccc1)C2 (some centres unmarked) [Atropine methyl bromide]
6. N[C@@H](Cc1cc(I)c(Oc2cc(I)c(O)c(I)c2)c(I)c1)C(=O)O.[Na] [L-Thyroxine (sodium)]

[1.027, 1.104, 1.769, 0.02161, 1.708, 1.071]

Hi, could you look up Complete for each item in my list?
1. N[C@@H](CSCC(=O)O)C(=O)O [Carbocisteine]
2. CC(=O)[C@H]1CC[C@H]2[C@@H]3C[C@H](C)C4=CC(=O)CC[C@]4(C)[C@H]3[C@@H](O)C[C@]12C
3. Fc1ccc(C(c2ccc(F)cc2)N2CCN(C/C=C/c3ccccc3)CC2)cc1 [Flunarizine (dihydrochloride)]
4. C=C(CC)C(=O)c1ccc(OCC(=O)O)c(Cl)c1Cl

[1.447, 1.283, 1.036, 0.956]

Source of measurements: patent US20250144067A1
